- System Tested: KRas-G12D (Homo sapiens, UniProt P01116, G12D)
- Construct: insert the HiBiT tag onto the N-terminus of one or more of the endogenous KRas alleles; host or cells: AsPC-1 HiBiT-KRasG12D knock-in clone (one tagged allele, two untagged KRasG12D alleles)
- Sequence (P01116 1-188 isoform P01116-2 G12D): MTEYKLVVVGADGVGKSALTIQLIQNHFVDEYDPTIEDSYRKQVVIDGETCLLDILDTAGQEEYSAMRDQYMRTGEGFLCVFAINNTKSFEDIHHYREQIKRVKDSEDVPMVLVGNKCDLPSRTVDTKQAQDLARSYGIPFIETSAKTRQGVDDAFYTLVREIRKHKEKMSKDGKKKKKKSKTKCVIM
- Test Method Notes: HiBiT Degradation Assay (G12D), AsPC-1 HiBiT-KRasG12D cells, 24 hr
- Format: cell-based
- Measurement Parameters: AsPC-1 cells
- Procedure: AsPC-1 (CRL-1682) cells were purchased from ATCC and are homozygous for the G12D mutation in KRas. […] AsPC-1 HiBiT-KRasG12D cells were plated at 9000 or 15,000 cells/well in a 384 well plate (Corning #3770). […] Plates were then allowed to equilibrate to RT and fluorescence was measured using a Perkin-Elmer EnVision. After completion of the fluorescence read, the liquid from each well was removed and the cells were washed with PBS. […]
Endpoint: DC50

- C#Cc1c(F)ccc2cc(O)cc(-c3ncc4c(N5CC6CCC(C5)N6)nc(OC[C@@H]5CC[C@@H](CN6CCN(CC7CCN(c8ccc9c(c8)n(C(C)C)c(=O)n9C8CCC(=O)NC8=O)CC7)CC6)N5C)nc4c3F)c12 (some centres unmarked): < 5.1 µM

**Q:** # DC50 lookup, item C#Cc1c(F)ccc2cc(O)cc(-c3ncc4c(N5CC6CCC(C5)N6)nc(N(C)CCN5CCC(CC6CCN(CC7CCN(c8ccc9c(c8F)CN(C8CCC(=O)NC8=O)C9=O)CC7)CC6)CC5)nc4c3F)c12 (centres unmarked)
**A:** < 5.1 µM

----------
- System Tested: KRas-G12D (Homo sapiens, UniProt P01116, G12D)
- Construct: insert the HiBiT tag onto the N-terminus of one or more of the endogenous KRas alleles; host or cells: AsPC-1 HiBiT-KRasG12D knock-in clone (one tagged allele, two untagged KRasG12D alleles)
- Test Method Notes: HiBiT Degradation Assay (G12D), AsPC-1 HiBiT-KRasG12D cells, 24 hr
- Format: cell-based
- Measurement Parameters: AsPC-1 cells
Endpoint: DC50

Use these answered entries as a reference point.
- CCc1cccc2c(F)c(O)cc(-c3ncc4c(N5CC6CCC(C5)N6)nc(OCCN5CCC(CC6CCN(c7cccc8c7CN(C7CCC(=O)NC7=O)C8=O)CC6)CC5)nc4c3F)c12 (centres unmarked): > 1 µM
- C#Cc1c(F)ccc2cc(O)cc(-c3ncc4c(N5CC6CCC(C5)N6)nc(OCCN5CCC6(CC5)CCN(CC5CCN(c7ccc8c(c7)C(=O)N(C7CCC(=O)NC7=O)C8=O)CC5)CC6)nc4c3F)c12 (centres unmarked): < 5.1 µM
- C#Cc1c(F)ccc2cc(O)cc(-c3ncc4c(N5CC6CCC(C5)N6)nc(OCCN5CCC(CC6CCN(CC7CCN(c8ccc9c(c8F)CN([C@@H]8CCC(=O)NC8=O)C9=O)CC7)CC6)CC5)nc4c3F)c12: < 5.1 µM
- C#Cc1c(F)ccc2cc(O)cc(-c3ncc4c(N5CC6CCC(C5)N6)nc(OCC5(CN6CCC(CN7CCN(c8ccc9c(c8)n(C)c(=O)n9C8CCC(=O)NC8=O)CC7)CC6)CC5)nc4c3F)c12 (centres unmarked): < 5.1 µM

**Q:** Fill blank: measured DC50 of the compound C#Cc1c(F)ccc2cccc(-c3ncc4c(N5CC6CCC(C5)N6)nc(OC[C@]56CCCN5[C@H](CN5CCN(c7ccc8c(c7)CN(C7CCC(=O)NC7=O)C8=O)CC5)CC6)nc4c3F)c12 (some centres unmarked) is ____.
**A:** 0.1 to 5.25 µM
